target.desc: T1, CD38 on cells (UniProt P28907 1-300)
T1 construct: whole, on cells; Endogenous CD38 on cell lines used in FACS or microscopy; also called DOM11; T10
protocol.details: FACS on RPMI cells (CD38+/138+)
measurement.kind: binding result

binder | endpoint.value
DOM11-7 (other, Anti-CD38 dAb monomer) DIQMTQSPSSLSASVGDRVTITCRASQYINTLLSWYQQKPGKAPKLLIYAQSRLQSGVPSRFSGSGSGTDFTLTISSLQPEDFATYYCQQFAFRPYTFGQGTKVEIKR | binds
DOM11-39 (other) DIQMTQSPSSLSASVGDRVTITCRASQPIDGNLRWYQQKPGKAPRLLIYFTSILQSGVPSRFSGSGSGTDFTLTISSLQPEDFATYYCQQHRHWPATFGQGTKVEIKR | binds
DOM11-37 (other, Anti-CD38 dAb monomer) DIQMTQSPSSLSAFVGDRVTITCRASQDIEGQLRWYQQKPGKAPKLLIYFGSLLQSGVPSRFSGSGSGTVYTLTISSLQPEDFATYYCQQSHLFPATFGQGTKVEIKR | binds
